Target: Integrin alpha-4/beta-7 (Mus musculus) (UniProt Q00651+P26011)
Assay: Inhibition of integrin alpha4 beta7 receptor in mouse TK1 cells assessed as inhibition of Mn2+-activated cell adhesion to mouse MAdCAM-1-Fc at 50 uM after 1 hr by methylene blue staining analysis relative to biotin-r9YDRREY
Type: cell-based
Residues, ends and D or L forms follow the SMILES beside them. *: point of attachment. X6 = CC(=O)OC[C@@H]1O[C@H](n2cc(C*)nn2)[C@@H](OC(C)=O)[C@H](OC(C)=O)[C@@H]1OC(C)=O; Biotin = O=C1N[C@H]2[C@H](CS[C@H]2CCCCC(=O)*)N1
endpoint name: inhibition (%)
State the answer as a number, implicitly in %.

// inhibition value for CC(=O)OC[C@@H]1O[C@H](n2cc(COc3ccc(C[C@H](NC(=O)[C@H](CCCNC(=N)N)NC(=O)[C@H](CCC(=O)O)NC(=O)[C@H](CCCNC(=N)N)NC(=O)[C@H](CCCNC(=N)N)NC(=O)[C@H](CCCNC(=N)N)NC(=O)[C@H](CCCNC(=N)N)NC(=O)[C@H](CCCNC(=N)N)NC(=O)[C@H](CCCNC(=N)N)NC(=O)[C@H](CCCNC(=N)N)NC(=O)[C@H](CCCNC(=N)N)NC(=O)CCCC[C@@H]4SC[C@@H]5NC(=O)N[C@@H]54)C(=O)O)cc3)nn2)[C@@H](OC(C)=O)[C@H](OC(C)=O)[C@@H]1OC(C)=O (Biotin-RRRRRRRRERY(X6)-OH) : 47.4
